- method: Pharmacokinetics of decursin in plasma after oral administration of RAGE
- Format: in vivo, SD rats
- recorded conditions: oral RAGE 100 mg/rat, mean ± SD, n = 6
readout label: half-life (h)
Give the value in h but do not write h after it.

What value of half-life has been recorded for this entry: `CC(C)=CC(=O)O[C@H]1Cc2cc3ccc(=O)oc3cc2OC1(C)C` 8.28

----------
- method: Pharmacokinetics of decursin in plasma after oral administration of RAGE
- Assay type: in vivo, SD rats
- recorded conditions: oral RAGE 100 mg/rat, last measured concentration, mean ± SD, n = 6, read-out: Clast
readout label: concentration at 48 h
Value and unit, in that order.

Quick one: concentration at 48 h of `CC(C)=CC(=O)O[C@H]1Cc2cc3ccc(=O)oc3cc2OC1(C)C` ? 2.62 ng/mL

----------
- method: Pharmacokinetics of decursin in plasma after oral administration of RAGE
- Type: in vivo, SD rats
- recorded conditions: oral RAGE 100 mg/rat, 0 to 48 h, mean ± SD, n = 6, read-out: MRT0-t
- Method: Quantification of decursin was performed using an Accela LC system (Thermo Fisher Scientific; MA, USA) equipped with an autosampler, degasser, and quaternary solvent pump. Decursin and IS were separated on a Hypersil GOLD C18 column (2.1 mm × 100 mm, 1.9 μm; Thermo Fisher Scientific, MA, USA) at 35℃. […] The pharmacokinetic parameters of decursin were calculated using plasma concentration of decursin versus time data using PKSolver (a free add-in program for Microsoft Excel).
readout label: MRT last (h)
Give the quantity in h, number only.

Look up MRT last for this compound: CC(C)=CC(=O)O[C@H]1Cc2cc3ccc(=O)oc3cc2OC1(C)C [decursin] 5.43

----------
- method: Pharmacokinetics of decursin in plasma after oral administration of RAGE
- Type: in vivo, SD rats
- recorded conditions: oral RAGE 100 mg/rat, 0 to 48 h, mean ± SD, n = 6
readout label: AUC(0-t) (ng·h/mL)
Could you give me the number in ng·h/mL? Just the number is fine.

Consider the compound `CC(C)=CC(=O)O[C@H]1Cc2cc3ccc(=O)oc3cc2OC1(C)C` and give its measured AUC(0-t). 1190

----------
- method: Pharmacokinetics of decursin in plasma after oral administration of RAGE
- Format: in vivo, SD rats
- recorded conditions: oral RAGE 100 mg/rat, mean ± SD, n = 6, read-out: MRT0-∞
readout label: MRT inf (h)
Give just the number in h; leave the unit off.

Entry CC(C)=CC(=O)O[C@H]1Cc2cc3ccc(=O)oc3cc2OC1(C)C [decursin] has what MRT inf? 6.9
